Assay: self-splicing fitness, log relative to wild type (ln ratio); higher = more splicing; Tetrahymena group I intron in knt gene, E. coli kanamycin selection, DiMSum; sequences stand for … in CUCUCU…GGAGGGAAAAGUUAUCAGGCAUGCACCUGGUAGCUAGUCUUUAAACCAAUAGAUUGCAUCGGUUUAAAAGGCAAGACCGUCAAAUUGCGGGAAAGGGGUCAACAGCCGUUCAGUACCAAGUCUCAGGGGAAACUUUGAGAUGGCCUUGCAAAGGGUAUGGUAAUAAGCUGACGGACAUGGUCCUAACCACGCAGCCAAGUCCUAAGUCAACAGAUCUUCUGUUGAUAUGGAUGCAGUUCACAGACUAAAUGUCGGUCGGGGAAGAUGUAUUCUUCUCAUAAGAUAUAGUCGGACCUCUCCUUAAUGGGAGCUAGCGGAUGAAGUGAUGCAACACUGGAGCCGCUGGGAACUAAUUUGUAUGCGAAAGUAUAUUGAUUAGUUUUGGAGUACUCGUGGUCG;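 further: selection with 25 µg/mL kanamycin versus none on LB agar overnight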
Conditions: 30 °C
Would you mind telling me the reported self-splicing fitness (ln) of each entry?
Answers are plain numbers.

# sequence_chain, quantitative_result
measured = [
    ("CGCGAGCAAUAUUACGAGCA", -1.27),
]

Working through the 3 sequences below one at a time, give self-splicing fitness (ln) for each.
1. UCCCAGCAAUAUUACGCUAG
2. CCUUAGCAAUAUUACGUUUG
3. CAUCAGCAAUAUUACGAGCG

1: -3.45; 2: -3.99; 3: -0.443

###

Field: self-splicing fitness (ln). Provide a value for each of the sequences that follow.
Experiment: self-splicing fitness, log relative to wild type (ln ratio); higher = more splicing; Tetrahymena group I intron in knt gene, E. coli kanamycin selection, DiMSum; sequences stand for … in CUCUCU…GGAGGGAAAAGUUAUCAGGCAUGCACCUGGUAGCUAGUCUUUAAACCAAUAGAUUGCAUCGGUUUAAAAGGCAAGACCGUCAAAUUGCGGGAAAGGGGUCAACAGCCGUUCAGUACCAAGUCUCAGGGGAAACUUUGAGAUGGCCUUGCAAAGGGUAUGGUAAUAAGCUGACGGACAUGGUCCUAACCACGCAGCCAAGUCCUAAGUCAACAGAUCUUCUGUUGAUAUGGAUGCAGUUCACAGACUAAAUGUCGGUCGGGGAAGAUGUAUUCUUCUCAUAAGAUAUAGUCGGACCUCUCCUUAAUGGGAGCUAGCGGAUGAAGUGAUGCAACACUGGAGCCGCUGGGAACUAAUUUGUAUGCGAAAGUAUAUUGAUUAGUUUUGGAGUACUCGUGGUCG
Settings: 37 °C
Give bare numbers.

Answered cases to consult:
# sequence_chain, self-splicing fitness (ln)
records = [
    ("GAAAAGCAAUAUUACGUUGC", -2.67),
    ("UGACAGCAAUAUUACGUCUC", -1.47),
    ("UCGUAGCAAUAUUACGAACU", -2.63),
    ("UCAGAGCAAUAUUACGCGCU", -1.62),
    ("CAAAAGCAAUAUUACGUCCA", -2.05),
]

For each of the sequences below, state self-splicing fitness (ln).
1. UAGGAGCAAUAUUACGCGGA
2. AGUCAGCAAUAUUACGGCAU
3. CAGUAGCAAUAUUACGUCAA
4. ACGCAGCAAUAUUACGCAAG

1. -2.52
2. -0.106
3. -2.59
4. -0.638

// batch mode: one self-splicing fitness (ln) value per listed entry
1. CACCAGCAAUAUUACGUGCC
2. UCUAAGCAAUAUUACGAUUU
3. ACGAAGCAAUAUUACGCGCC
4. UCAAAGCAAUAUUACGAACU
5. UUAAAGCAAUAUUACGCACG
6. GACGAGCAAUAUUACGCGCA
7. AAUGAGCAAUAUUACGUCCG

[-1.27, -1.37, 0.356, -1.97, 0.47, -1.3, -3.13]
